target: Angiotensin-converting enzyme (Rattus norvegicus, UniProt P47820); assay: Inhibition of Angiotensin I converting enzyme (ACE)
Sequence (P47820 whole entry): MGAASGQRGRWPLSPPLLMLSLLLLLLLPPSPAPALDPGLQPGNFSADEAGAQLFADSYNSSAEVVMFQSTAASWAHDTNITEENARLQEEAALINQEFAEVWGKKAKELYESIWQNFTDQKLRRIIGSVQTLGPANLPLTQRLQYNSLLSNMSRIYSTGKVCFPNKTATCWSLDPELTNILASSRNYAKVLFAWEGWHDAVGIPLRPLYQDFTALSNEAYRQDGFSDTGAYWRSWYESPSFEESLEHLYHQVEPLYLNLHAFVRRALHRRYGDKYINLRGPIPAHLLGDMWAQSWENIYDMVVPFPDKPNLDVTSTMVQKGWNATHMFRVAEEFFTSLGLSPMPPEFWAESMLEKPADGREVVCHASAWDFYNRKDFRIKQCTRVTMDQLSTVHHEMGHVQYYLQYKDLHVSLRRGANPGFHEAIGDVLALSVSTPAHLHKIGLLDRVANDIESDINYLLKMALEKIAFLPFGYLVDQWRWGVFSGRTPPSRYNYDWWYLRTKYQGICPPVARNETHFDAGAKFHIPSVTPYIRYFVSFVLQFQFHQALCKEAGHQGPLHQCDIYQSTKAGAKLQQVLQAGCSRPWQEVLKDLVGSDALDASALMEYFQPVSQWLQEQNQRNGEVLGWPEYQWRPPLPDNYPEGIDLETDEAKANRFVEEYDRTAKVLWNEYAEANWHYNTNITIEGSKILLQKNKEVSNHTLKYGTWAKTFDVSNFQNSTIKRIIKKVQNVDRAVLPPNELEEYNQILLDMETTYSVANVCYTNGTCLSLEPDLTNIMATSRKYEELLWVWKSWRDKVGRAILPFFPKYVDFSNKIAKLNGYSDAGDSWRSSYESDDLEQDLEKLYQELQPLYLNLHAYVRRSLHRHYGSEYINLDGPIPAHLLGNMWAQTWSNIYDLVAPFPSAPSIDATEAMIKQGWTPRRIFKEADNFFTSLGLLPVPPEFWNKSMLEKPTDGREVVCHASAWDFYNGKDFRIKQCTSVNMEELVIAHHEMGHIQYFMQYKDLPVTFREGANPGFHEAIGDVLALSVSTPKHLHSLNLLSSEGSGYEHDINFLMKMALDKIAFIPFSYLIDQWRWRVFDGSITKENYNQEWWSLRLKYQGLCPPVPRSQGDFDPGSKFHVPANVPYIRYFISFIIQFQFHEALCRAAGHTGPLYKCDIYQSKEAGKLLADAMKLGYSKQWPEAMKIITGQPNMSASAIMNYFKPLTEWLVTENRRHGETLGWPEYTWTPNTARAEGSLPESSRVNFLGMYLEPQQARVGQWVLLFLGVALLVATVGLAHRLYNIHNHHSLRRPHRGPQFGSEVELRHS
pKi: −log10 of the molar value.
Property: pKi; scope: individual compounds

# COMPOUND, pKi
measured = [
    ("O=P(O)(O)C(CCc1cccc2ccccc12)N[C@@H](Cc1ccc(-c2ccccc2)cc1)c1nnn[nH]1 (stereo partly drawn)", "< 5.00"),
    ("O=C(O)C(Cc1c[nH]c2ccccc12)NC(=O)C(CS)C(c1ccccc1)c1ccccc1 (stereo not drawn)", 6.60),
    ("O=C(O)CNC(=O)C(CS)Cc1ccccc1 (stereo not drawn)", "< 7.00"),
]

----------
Property: pKi; scope: individual molecules
Target: Endothelin-converting enzyme 1 (Homo sapiens)
Sequence (P42892 whole entry): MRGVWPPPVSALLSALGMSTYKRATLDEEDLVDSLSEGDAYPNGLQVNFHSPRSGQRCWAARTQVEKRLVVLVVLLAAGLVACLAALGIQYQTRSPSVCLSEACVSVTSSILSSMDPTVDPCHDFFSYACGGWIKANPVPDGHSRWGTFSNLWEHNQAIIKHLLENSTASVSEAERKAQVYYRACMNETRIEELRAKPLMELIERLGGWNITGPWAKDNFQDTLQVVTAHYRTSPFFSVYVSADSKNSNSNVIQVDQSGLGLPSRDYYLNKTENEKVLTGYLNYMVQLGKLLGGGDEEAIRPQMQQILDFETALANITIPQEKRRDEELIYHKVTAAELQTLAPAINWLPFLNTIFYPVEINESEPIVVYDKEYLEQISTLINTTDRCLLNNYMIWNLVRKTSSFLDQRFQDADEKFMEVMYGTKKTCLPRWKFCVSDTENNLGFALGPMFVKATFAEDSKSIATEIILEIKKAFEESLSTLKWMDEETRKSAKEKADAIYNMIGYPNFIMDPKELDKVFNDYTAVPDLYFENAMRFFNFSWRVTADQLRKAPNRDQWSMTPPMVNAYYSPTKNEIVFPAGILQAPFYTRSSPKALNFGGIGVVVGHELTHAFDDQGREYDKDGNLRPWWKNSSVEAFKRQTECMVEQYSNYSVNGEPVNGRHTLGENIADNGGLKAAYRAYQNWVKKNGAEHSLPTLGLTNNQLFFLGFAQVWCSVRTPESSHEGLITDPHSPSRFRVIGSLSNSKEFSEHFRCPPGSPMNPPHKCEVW
Test: Inhibition of Endothelin-converting enzyme 1 (ECE)
pKi: −log10 of the molar value.

# MOLECULE, pKi
rows = [
    ("C[C@H](CS)C(=O)N1CCC[C@H]1C(=O)O [CAPTOPRIL]", "< 5.00"),
    ("O=C(O)C(Cc1c[nH]c2ccccc12)NC(=O)C(CS)C(c1ccccc1)c1ccccc1 (centres undefined)", "< 5.00"),
    ("O=P(O)(O)C(CCc1cccc2ccccc12)N[C@@H](Cc1ccc(-c2ccccc2)cc1)c1nnn[nH]1 (some centres undefined)", 7.97),
    ("O=C(O)CNC(=O)C(CS)Cc1ccccc1 (centres undefined) [THIORPHAN]", "< 5.00"),
]
